- Tested on: EKVX NSCLC
- TEST_PROTOCOL: NCI-60 one-dose screen, 48 h
- MEASUREMENT_CONTEXT: 10 µM unless noted
Compounds without any hit were thinned out: in the full panel of roughly 83,000, 20% have a hit. The source made the active and inactive calls. The calls were made as follows: active = growth percent below 10; inactive = the rest.
Pick one and only one: active, inactive

CC(C)=CCCC(C)C1=C(O)C(=O)C(C)=CC1=O (stereo not drawn) | inactive

Enquiry: Record request — test call for `Nc1nc(N)c2cc(Sc3cccc(C(F)(F)F)c3)ccc2n1`
Return: inactive

Enquiry: Record request — test call for `NC(=Nc1nc(-c2ccccn2)cc2ccccc12)c1ccccn1`
Return: inactive

Enquiry: Record request — test call for `O=[N+]([O-])c1ccc(C(Br)c2ccc([N+](=O)[O-])cc2)cc1`
Return: inactive

Enquiry: Record request — test call for `Nc1cc(-c2ccccc2)ccc1O`
Return: inactive

====

- Tested on: CCRF-CEM leukemia
- TEST_PROTOCOL: NCI-60 one-dose screen, 48 h
- MEASUREMENT_CONTEXT: 10 µM unless noted
The panel holds about 83,000 compounds, 20% with a hit somewhere; the sample as a whole holds those more often. Active and inactive are the calls of the source. How the source made its calls: active means growth percent below 10; inactive means the rest.
Pick one and only one: 1.0 for active, 0.0 for inactive

Reference set, count: 10
CC(O)C(O)C(O)C(O)C(O)C(=O)NNc1ccccc1 (stereo not drawn) | 0.0
O=C1C=CC(O)=CC1=P(c1ccccc1)(c1ccccc1)c1ccccc1 | 0.0
CCCC[n+]1c(/C=C\c2c(OC)cc(OC)cc2OC)ccc2ccccc21 | 1.0
NNc1cccc([N+](=O)[O-])c1 | 0.0
Cc1ccc(NC2=CC(=O)C(=O)c3ccccc32)cc1 | 0.0
CC1(C)CCCC2=C1C(=O)N(SC(Cl)(Cl)Cl)C2=O | 0.0
O=[N+]([O-])C=C(c1ccccc1)c1ccccc1 | 0.0
CN(C)CCN(C)CC(C)(C)C(=O)/C=C/c1ccc(Cl)c(Cl)c1 | 1.0
CCCCCCCCCCCC[n+]1ccccc1 (tested in a mixture with another compound) | 1.0
COc1ccc(C(OCC2OC(n3ccc(NC(=O)c4ccccc4)nc3=O)C(O)C2O)(c2ccccc2)c2ccccc2)cc1 (stereo not drawn) | 0.0

Enquiry: Record request — test call for `Oc1ccc2c(c1)CCc1ccccc1-2`
Return: 0.0

Enquiry: Record request — test call for `NC(=S)Nc1ccc2c(c1)Cc1ccccc1-2`
Return: 0.0

Enquiry: Record request — test call for `O=C(Nc1ccc(Cl)c(Cl)c1)Nc1ccccc1O`
Return: 0.0

====

- System: M14 melanoma
- TEST_PROTOCOL: NCI-60 one-dose screen, 48 h (100 = growth as untreated, 0 = no growth, -100 = all killed)
- MEASUREMENT_CONTEXT: 10 µM unless noted
The panel holds about 83,000 compounds, 20% with a hit somewhere; the sample as a whole holds those more often.
Please respond with reported growth for every item in the list.
Numbers only, in %.

Observe how each entry below is paired with its result.
COc1c(C)c2c(c(O)c1C/C=C(\C)CCC(=O)O)C(=O)OC2 | 20.4
Oc1ccc2c(c1)CCc1ccccc1-2 | 102
O=[N+]([O-])C=C(c1ccccc1)c1ccccc1 | 79.4

Would you be so kind as to report growth for each listed record?
1. CCCCCCCCCCCCCCCC[N+]1(C)CCCC1c1cccnc1 (stereo not given)
2. CN1CCC(CN2c3ccccc3Sc3ccccc32)C1 (stereo not given)

Return:
1: 17.9; 2: 73.6
